- protocol.summary: NCI Yeast Anticancer Drug Screen. Data for the cln2 rad14 strain (AID 165)
- assay.context: S. cerevisiae cln2 rad14 strain, at 50.0 µM (retest, dose inferred, filed as 5.0)
The panel holds about 79,000 compounds, 15% with a hit somewhere; the sample as a whole holds those more often. Calls of active or inactive are those of the source. Cut-off read from the data, not from the text of the source: active = growth inhibition above about 70%; inactive = the rest.
Hello, when you answer, please use one of the following outcomes: active, inactive

// below: answered compounds
Prompt: Test call for this compound, please: "CC1=C(C(=O)Nc2ccc([N+](=O)[O-])cc2)C(c2ccccc2F)C(C(=O)Nc2ccc([N+](=O)[O-])cc2)=C(C)N1"
Response: inactive

Prompt: Moving on to "Clc1cc2c(c3ncccc13)OCN(CCc1ccccc1)C2"
Response: inactive

Prompt: Now consider "O=C(Oc1ccc(Cl)cc1)Oc1ccc(Cl)cc1" .
Response: inactive

Prompt: // next record "O=C1CN(Cc2ccc(Cl)cc2)CC(=O)N2Cc3ccccc3CN12"
Response: inactive

Prompt: Do the same for "CCCCn1c(C)nc2cc(C(F)(F)F)cc(N)c21" please
Response: inactive

Prompt: Also need "O=C(Nc1c(Cl)cc([N+](=O)[O-])cc1Cl)/C(=N\Nc1cccc(Cl)c1)c1c(O)c2ccccc2oc1=O" , thanks.
Response: inactive

Prompt: Lookup "C=C(Br)CN(CC)CC"
Response: inactive

Prompt: Record: COc1cc(NCCCCCCCC2CCCCN2)c2ncccc2c1 (stereo unspecified)
Response: active

***
Prompt: Field: outcome | Entry: "CN(CCCN(CCO)CCO)C1CC(C)(C)N(O)C(C)(C)C1"
Response: inactive

Prompt: Also C1=C(c2ccccc2)C(c2ccccc2)C(c2ccccc2)C/C1=N/OCCN1CCCC1 (stereo unspecified) ?
Response: active

Prompt: Continue with CC12CCC(O)CC1=CCC1C2CCC2(C)c3nc(C#N)c(=N)n(O)c3CC12 (stereo unspecified)
Response: active

Prompt: Now the same for "Cc1ccc(N=Nc2ncccc2O)cc1C"
Response: active

Prompt: Try this compound too: "Cn1c(=S)c2[nH]c(SCCN3CCCCC3)nc2n(C)c1=O"
Response: inactive

Prompt: Again, but for "Clc1cc2ccccc2c2ccccc12"
Response: inactive

Prompt: Query CCN(CC)CC(O)c1ccc2cc(Cl)c3ccccc3c2c1 (stereo unspecified) next
Response: active

Prompt: "COC(=O)c1c(C)cccc1C(=O)c1c(C)cc(C)cc1C" , same question.
Response: inactive

###

- protocol.summary: NCI Yeast Anticancer Drug Screen. Data for the rad50 strain (AID 155)
- assay.context: S. cerevisiae rad50 strain growth inhibition; at 50.0 µM; hits give high values
Compounds without any hit were thinned out: in the full panel of roughly 79,000, 15% have a hit.
Decision: growth inhibition compared against 90%; not below it gives rule met, below it gives rule not met.

The following compounds have reported results that may help.
Prompt: Can "CCOC(=O)Cc1nc2ccccc2s1" be said to have growth inhibition at or above 90%?
Response: rule met

Prompt: Thanks! And "Cc1ccc(S(=O)(=O)N/N=c2\c(C)c(C3=NS(=O)(=O)c4cc(S(N)(=O)=O)c(Cl)cc4N3)oc3c(Cl)cc(Cl)cc23)cc1" ?
Response: rule not met

Prompt: Same lookup for CCCCN(CCCC)CC(O)c1cc(-c2ccc(Cl)cc2)nc2c(-c3ccccc3)cccc12 (stereo unspecified) , please.
Response: rule not met

Prompt: Follow-up item: "COc1ccccc1/C=C1\C=Cc2ccccc21"
Response: rule not met

Prompt: Next compound: "COc1ccc(-c2cc(C(=O)O)c3cccc(C(F)(F)F)c3n2)cc1"
Response: rule not met

Prompt: Could you do the same for Oc1cc2c(cc1C(c1ccc(Cl)cc1)N1CCOCC1)OCO2 (stereo unspecified) , please?
Response: rule met

Prompt: What do we get for "CN=c1sc2c(n1C)C(=O)c1ccccc1C2=O" ?
Response: rule not met

Prompt: Okay, and "O=C(Nc1cc(Cl)ccc1Cl)Nc1ccc(Cl)cc1C(=O)c1ccccc1" ?
Response: rule not met

Prompt: Now the compound "CN(NC(=O)/C(=C\c1ccco1)NC(=O)c1ccccc1)c1cn[nH]c(=O)c1Cl"
Response: rule not met

Prompt: Similarly, "O=c1oc(-c2ccc(Cl)c([N+](=O)[O-])c2)ns1" ?
Response: rule met

---
Prompt: Please tell me: is the compound "CC(C)CCSc1ncnc2nc[nH]c12" at or over 90% in terms of growth inhibition?
Response: rule not met

Prompt: Next record, please: O=C(CC(C[N+](=O)[O-])c1ccc2c(c1)OCO2)c1ccccc1 (stereo unspecified)
Response: rule not met

Prompt: Next record, please: "CC1(C)CC(=N/O)/C(=N/O)C(=N\NC(N)=S)/C1"
Response: rule not met

Prompt: How about this compound: "COc1ccc2ccccc2c1Cc1c(OC)ccc2ccccc12"
Response: rule not met

Prompt: Further, for "COc1ccc2nc(NC(=O)Nc3c(Cl)cccc3Cl)sc2c1" ?
Response: rule met

Prompt: Now the compound "Fc1ccc(CN2COc3c(ccc4cccnc34)C2)cc1"
Response: rule not met

Prompt: Next: "C[N+](C)(C)CCCCCCCCCCC(=O)N/N=C/c1ccc([N+](=O)[O-])o1"
Response: rule not met

Prompt: Can you handle "Cc1c(N=Nc2cccc(F)c2)c(-c2ccccc2)nn1C(N)=S" next?
Response: rule met

Prompt: And the next one, CN(NC1OC(=O)c2ccccc21)c1ccc(C(F)(F)F)cc1[N+](=O)[O-] (stereo unspecified) ?
Response: rule not met

Prompt: Request: CC(=O)OC1CCC2(C)C(CCC3C2CCC2(C)C4CCC32OC(=O)C4CC(=O)O)C1 (stereo unspecified)
Response: rule not met

Prompt: Also "Cc1ccc(N=Nc2sc(N)nc2C)cc1C" ?
Response: rule not met

Prompt: Repeat with "Nc1ccc2oc(=O)c3ccccc3c2c1"
Response: rule not met

Prompt: Please answer likewise for "CCCCCCCCCCOC(=O)c1cccnc1"
Response: rule not met

Prompt: Same lookup for CC1(C)CNCC(C)(OCc2ccccc2)C(=O)NC(C)(C)CNCC(C)(OCc2ccccc2)C(=O)N1 (stereo unspecified) , please.
Response: rule not met

Prompt: Next: "CCOC(=O)C1=C(C)NC(C)=C(C(=O)OCC)C1c1ccnc2ccccc12"
Response: rule not met

Prompt: Continue with "Cc1cc(=Nc2ccc3c(c2)c(N)cc(C)[n+]3C)nc(N)n1C"
Response: rule met

Prompt: Okay, and "CC(C)NC(=O)OCCN=C1c2ccccc2CCc2ccccc21" ?
Response: rule not met

Prompt: Again, but for "COc1ccc(I)c(C=NC2CCCCC2)c1C"
Response: rule met

Prompt: Follow-up entry: "COc1cccc(CCCNC(=O)Cc2ccccc2CO)c1"
Response: rule not met

Prompt: Also need Cc1ccc(S(=O)(=O)OCC(/C=N/NC(N)=O)OCOC(C)/C=N/NC(N)=O)cc1 (stereo unspecified) , thanks.
Response: rule not met

Prompt: Also Cc1ccc(N2C(N)=C(C#N)C(C#N)(C#N)C2c2ccccc2)cc1 (stereo unspecified) ?
Response: rule not met

Prompt: Please answer likewise for "Oc1ccc(-c2ccc3ccccc3c2)cc1"
Response: rule met

Prompt: "O=C(/C=C/c1ccccc1)c1ccc(NCc2nc3ccccc3[nH]2)cc1" , same question.
Response: rule not met

Prompt: Note, next up: "CSc1cc(N)nc(N)n1"
Response: rule not met

Prompt: Please give the result for "COc1cc2c(c(OC)c1OC)-c1ccc(SC)c(=O)cc1[C@@H](NC(=O)Oc1ccccc1)CC2" too.
Response: rule not met

Prompt: Continue with "Nc1ncnc2nc(SCCO)[nH]c12"
Response: rule not met

Prompt: Likewise for "c1ccc(OCCCOc2ccccc2)cc1" ?
Response: rule not met
